pIC50: −log10 of the molar value.
Study the reported pIC50 values for ITK (Homo sapiens, UniProt Q08881) given below; they originate from different publications.

Answered examples (5):
{"columns": ["COMPOUND", "MEASURED ENDPOINT", "MEASURED RESULT"],
 "data": [
  ["CC#CC(=O)N1CCC[C@H]1c1nc(-c2ccc(C(=O)Nc3ccc(C)cn3)c(OC)c2)c2c(N)nccn12", "pIC50", "< 6.00"],
  ["C=CC(=O)N1CCC[C@@H](n2nc(-c3ccc(C(=O)Nc4ccccn4)cc3Cl)c3c(N)nccc32)C1", "pIC50", 9.22],
  ["CC1C(Nc2ncnc3[nH]ccc23)CCCN1C(=O)CNc1cc(Cl)cc(Cl)c1 (centres unmarked)", "pIC50", "6.00 to 7.00"],
  ["COc1cc2nccc(Oc3ccc(NC(=O)c4cc(S(C)(=O)=O)n(-c5ccc(F)cc5)n4)c(F)c3)c2cc1OC", "pIC50", "≤ 5.00"],
  ["C=CC(=O)N1CCC[C@@H](n2nc(-c3cccc(Oc4ccccc4)c3)c3cncnc32)C1", "pIC50", "< 6.30"]
]}

Entry COCCOc1ccc(Nc2ncc(F)c(Nc3cccc(NC(=O)/C=C/CN4CC[C@@H](O)C4)c3)n2)cc1 : reported pIC50 = ?
7.00 to 8.00

Consider next the compound CN(CCO)CCCOc1ccc2cc(-c3n[nH]c4ccsc34)[nH]c2c1 in the same way.
8.49

Consider next the compound C=CC(=O)N1CCC[C@@]1(C)Cn1nc(-c2ccc(Oc3ccccc3)cc2)c2cncnc21 in the same way.
< 6.30
